# DC50 listing for each entry below
biological target: HiBit-BRG1 fusion protein in stable HeLa cell line expressing HiBit-BRG1 and LgBit (Homo sapiens, UniProt P51532); construct: expressed in transfected cells; experiment: HiBiT-BRG1 cell-based degradation assay (Nano-Glo HiBiT, 24 h); settings: HeLa HiBit-BRG1/LgBit cells, read-out: BRMG1 HiBit Degradation IC50
Sequence (P51532 whole entry, the tested form may be a part): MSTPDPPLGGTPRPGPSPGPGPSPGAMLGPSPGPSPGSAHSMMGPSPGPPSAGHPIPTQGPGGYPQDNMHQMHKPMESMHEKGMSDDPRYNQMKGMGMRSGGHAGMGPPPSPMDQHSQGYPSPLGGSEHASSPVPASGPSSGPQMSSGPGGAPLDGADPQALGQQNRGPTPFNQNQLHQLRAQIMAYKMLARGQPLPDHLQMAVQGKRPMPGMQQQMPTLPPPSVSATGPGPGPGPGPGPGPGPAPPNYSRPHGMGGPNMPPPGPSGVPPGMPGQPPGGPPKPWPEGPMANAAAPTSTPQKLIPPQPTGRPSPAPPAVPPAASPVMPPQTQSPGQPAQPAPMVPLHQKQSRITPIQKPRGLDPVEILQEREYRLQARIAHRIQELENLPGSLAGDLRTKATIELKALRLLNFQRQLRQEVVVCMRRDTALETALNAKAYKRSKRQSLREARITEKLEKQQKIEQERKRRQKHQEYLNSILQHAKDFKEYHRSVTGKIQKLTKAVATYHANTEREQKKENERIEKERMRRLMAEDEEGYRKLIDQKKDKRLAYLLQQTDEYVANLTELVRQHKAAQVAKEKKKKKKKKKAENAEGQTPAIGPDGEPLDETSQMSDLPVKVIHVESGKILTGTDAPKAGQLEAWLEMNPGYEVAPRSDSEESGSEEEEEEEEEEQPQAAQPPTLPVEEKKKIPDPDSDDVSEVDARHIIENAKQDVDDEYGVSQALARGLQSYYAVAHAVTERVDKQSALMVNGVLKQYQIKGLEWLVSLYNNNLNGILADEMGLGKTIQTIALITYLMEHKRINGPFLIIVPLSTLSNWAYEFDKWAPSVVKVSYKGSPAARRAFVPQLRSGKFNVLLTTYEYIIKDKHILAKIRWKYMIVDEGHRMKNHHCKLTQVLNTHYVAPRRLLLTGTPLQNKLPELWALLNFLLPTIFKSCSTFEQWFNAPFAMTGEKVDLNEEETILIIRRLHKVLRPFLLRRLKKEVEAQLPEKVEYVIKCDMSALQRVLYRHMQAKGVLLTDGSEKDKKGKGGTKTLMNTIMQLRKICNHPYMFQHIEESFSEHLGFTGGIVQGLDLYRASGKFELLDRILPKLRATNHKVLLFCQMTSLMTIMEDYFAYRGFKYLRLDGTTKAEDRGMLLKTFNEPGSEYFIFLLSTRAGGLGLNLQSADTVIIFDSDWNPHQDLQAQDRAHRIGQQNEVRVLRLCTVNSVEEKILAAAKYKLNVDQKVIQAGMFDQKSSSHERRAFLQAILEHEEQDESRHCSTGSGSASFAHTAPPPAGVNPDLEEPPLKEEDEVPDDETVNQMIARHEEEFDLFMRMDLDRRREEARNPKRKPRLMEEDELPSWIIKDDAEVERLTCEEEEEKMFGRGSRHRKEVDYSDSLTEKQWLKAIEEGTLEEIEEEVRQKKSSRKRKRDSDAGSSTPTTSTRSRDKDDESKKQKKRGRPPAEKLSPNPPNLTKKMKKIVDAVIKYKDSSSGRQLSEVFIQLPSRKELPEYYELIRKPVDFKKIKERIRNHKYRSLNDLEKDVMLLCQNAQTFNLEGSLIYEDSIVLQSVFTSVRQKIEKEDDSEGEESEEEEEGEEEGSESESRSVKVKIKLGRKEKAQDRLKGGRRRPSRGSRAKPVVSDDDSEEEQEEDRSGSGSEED
propertyName: DC50

recordsmiles=Cc1ncsc1-c1ccc([C@H](C)NC(=O)[C@@H]2C[C@@H](O)CN2C(=O)[C@@H](c2cc(N3CCOC4(CN(c5ccc6nnc(-c7ccccc7O)cc6c5)C4)C3)no2)C(C)C)cc1 propertyname=DC50 result="> 0.01 µM"
recordsmiles=Cc1ncsc1-c1ccc([C@H](C)NC(=O)[C@@H]2C[C@@H](O)CN2C(=O)[C@@H](c2cc(N3CCC4(CCC(c5ccc6cc(-c7ccccc7O)nnc6c5)CC4)CC3)no2)C(C)C)cc1 propertyname=DC50 result="> 0.01 µM"
recordsmiles=Cc1cc(N2CCC(c3ccc4nnc(-c5ccccc5O)cc4c3)CC2)ncc1-c1cc([C@H](C(=O)N2C[C@H](O)C[C@H]2C(=O)N[C@@H](C)c2ccc(-c3scnc3C)cc2)C(C)C)on1 propertyname=DC50 result="> 0.01 µM"
